Entries and their z-score
# protocol.text: PSAC antagonists in infected red cells, primary screen, cell-based, P. falciparum Indochina, OD700, 18 h (AID 1157)
# reported.conditions: P. falciparum Indochina infected erythrocytes, osmotic lysis OD700, 18 h; higher = more signal, called active from +8 up or from −8 down
The source made the active and inactive calls.

{"sample.smiles": "C=C[C@@H](C)[C@H](O)c1ccc(OCCO)cc1", "z-score": "0.402 (inactive)"}
{"sample.smiles": "CN(C)CCCCCCNC(=O)[C@@H]1C[C@@H]2C(=O)N[C@@H](CCCCN)C(=O)N2[C@@H]1c1ccc(O)cc1", "z-score": "-1.88 (inactive)"}
{"sample.smiles": "[N-]=[N+]=Nc1ccccc1C[C@]1(C(=O)O)N=C(c2ccc(OCCCO)cc2)O[C@H]1c1ccccc1N=[N+]=[N-]", "z-score": "4.45 (inactive)"}
{"sample.smiles": "COc1ccc(C#Cc2ccc3c(c2)[C@]2(C(=O)N3)[C@H](C(=O)Nc3nc4ccccc4s3)[C@H]3C(=O)O[C@H](c4ccccc4)[C@H](c4ccccc4)N3[C@@H]2c2ccccc2OCCO)cc1", "z-score": "-0.442 (inactive)"}

----------
Below, each entry is listed alongside its reported composite z-score.
# target.or.test.system: Left-right determination factor 2 (Homo sapiens) (UniProt O00292)
# Sequence (O00292 whole entry, looked up): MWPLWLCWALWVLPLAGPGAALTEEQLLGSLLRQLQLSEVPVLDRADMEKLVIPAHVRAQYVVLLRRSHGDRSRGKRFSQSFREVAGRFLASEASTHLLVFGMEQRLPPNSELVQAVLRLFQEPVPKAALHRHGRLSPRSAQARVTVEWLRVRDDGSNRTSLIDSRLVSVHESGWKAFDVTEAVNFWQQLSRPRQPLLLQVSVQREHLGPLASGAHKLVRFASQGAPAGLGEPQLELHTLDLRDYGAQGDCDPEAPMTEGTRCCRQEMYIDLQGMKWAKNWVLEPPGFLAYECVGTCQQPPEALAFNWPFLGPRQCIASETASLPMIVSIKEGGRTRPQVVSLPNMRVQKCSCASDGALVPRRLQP
# protocol.text: LEFTY2 binders on small-molecule microarrays, primary screen, biochemical, small-molecule microarray, 635 nm fluorescence scan (AID 1110)
# reported.conditions: LEFTY2 binding, higher = more signal

{"compound": "NCCCCCNC(=O)[C@H]1C[C@H]2C(=O)N[C@@H](Cc3ccccc3)C(=O)N2[C@H]1c1ccc(O)cc1", "composite z-score": 0.202}
{"compound": "O=C1O[C@H](c2ccccc2)[C@H](c2ccccc2)N2[C@H]1[C@@H](C(=O)N1CCCCCCC1)[C@]1(C(=O)Nc3ccc(C#CC4(O)CCCCCC4)cc31)[C@H]2c1ccccc1OCCO", "composite z-score": 1.78}
{"compound": "CC(C)=CCCC(C)=CC(O)C1C=CC2C(=O)N(c3ccccc3)C(=O)C2N1Nc1ccccc1F (stereo not given)", "composite z-score": -0.0742}
{"compound": "CCCCCN1CC=CC23O[C@@H]4/C=C\\CCC(C)OC(=O)C4[C@H]2C(=O)N(CCCCCCO)[C@@H]3C1=O (stereo not given in full)", "composite z-score": -0.78}
{"compound": "C=C(C(=O)CC[C@H](OC(=O)c1ccccc1-c1ccccc1C(=O)O)c1ccccc1OCCO)C(C)C", "composite z-score": 0.346}
{"compound": "CC(=O)N1CC(C(O)C2C=CC3C(=O)NC(=O)C3N2Nc2ccc(Cl)cc2Cl)c2ccccc21 (stereo not given)", "composite z-score": -0.138}
{"compound": "O=C1C[C@@](C(=O)NCc2ccccc2)(c2ccc([N+](=O)[O-])cc2)[C@@H](c2ccc(CO)cc2I)N1CC12CC3CC(CC(C3)C1)C2", "composite z-score": 0.591}
{"compound": "CN1C(=O)C2C(C1=O)C1C=C(CCCO)C2C(C2CC2)N1Cc1cc2c(cc1Br)OCO2 (stereo not given)", "composite z-score": 0.285}
{"compound": "C=C(COC)/C(=C/C[C@@H](OC(C)=O)c1ccc(CO)o1)c1cc(C(=O)OC)ccc1OC", "composite z-score": -0.0379}
{"compound": "COc1cc(NN2C(C(O)c3ccccc3)C=CC3C(=O)N(C)C(=O)C32)cc(OC)c1OC (stereo not given)", "composite z-score": 0.222}
{"compound": "CN1C(=O)C2C=CC(C(O)c3ccc(F)cc3)N(NC(=O)OC(C)(C)C)C2C1=O (stereo not given)", "composite z-score": -0.205}
{"compound": "COc1ccc([Si](C)(C)[C@H]2[C@H](CCO)O[C@@]3(C(=O)N(Cc4ccccc4)c4ccc(N5CCOC5=O)cc43)[C@@H]2C)cc1", "composite z-score": 0.28}
{"compound": "COc1ccc([Si](C)(C)[C@@H]2[C@@H](CC(=O)N3Cc4ccccc4C[C@H]3CO)O[C@]3(C(=O)N(c4ccccc4)c4ccccc43)[C@H]2C)cc1", "composite z-score": 0.671}
{"compound": "COc1ccc([Si](C)(C)[C@H]2[C@H](CC(=O)N3Cc4ccccc4C[C@H]3CO)O[C@@]3(C(=O)N(Cc4ccc(N5C(=O)c6cccc7cccc5c67)cc4)c4ccccc43)[C@@H]2C)cc1", "composite z-score": 0.952}
{"compound": "Cc1ccc(C(C)CC(O)C2C=CC3C(=O)N(c4ccccc4)C(=O)C3N2Nc2ccc(C#N)cc2)o1 (stereo not given)", "composite z-score": 0.168}
{"compound": "CN1C(=O)C2C=CC(C(O)c3cc(C(F)(F)F)cc(C(F)(F)F)c3)N(NC(=O)OC(C)(C)C)C2C1=O (stereo not given)", "composite z-score": 0.106}
{"compound": "O=c1cccc(-c2ccc(F)cc2)o1", "composite z-score": 0.55}
{"compound": "COc1ccc(NC(=O)O[C@H]2[C@@H]3OC(=O)[C@H](Cc4cccc(Br)c4)C/C=C/C[C@@H](Cc4cccc(Br)c4)C(=O)O[C@H]3[C@@H](OC)O[C@@H]2CO)cc1", "composite z-score": 0.601}
{"compound": "O=C(O)[C@@H]1C[C@@H]2C(=O)N3CCC[C@H]3C(=O)N2[C@@H]1c1cccc(OCCO)c1", "composite z-score": 1.56}
{"compound": "CCOC(=O)C[C@H]1[C@H](OC(=O)c2cc3ccccc3oc2=O)[C@@H](NC(=O)c2ccc3ccccc3c2)c2cc(OCCCO)ccc2N1C(=O)Cc1ccc(OC)cc1", "composite z-score": 0.763}
{"compound": "C=C(C)C1CCC(C(O)C2C=CC3C(=O)N(C)C(=O)C3N2Nc2cc(OC)c(OC)c(OC)c2)CC1 (stereo not given)", "composite z-score": 0.428}
{"compound": "COCCOC(=O)N1C(=O)[C@@]2(c3ccccc31)[C@H](c1ccc(OCCO)cc1)N1[C@H](c3ccccc3)[C@H](c3ccccc3)OC(=O)[C@H]1[C@@H]2C(=O)N1CCCCCCC1", "composite z-score": 1.83}
{"compound": "C=CCN1C(=O)[C@]2(O[C@H](CCO)[C@@H]([Si](C)(C)c3ccc(OC)cc3)[C@@H]2C)c2cc(N3C(=O)COc4ccccc43)ccc21", "composite z-score": 0.181}
{"compound": "COc1cc(C(O)C2C=CC3C(=O)N(Cc4ccccc4)C(=O)C3N2n2cnnc2)cc(OC)c1OC (stereo not given)", "composite z-score": 0.109}
{"compound": "CS(=O)(=O)CCOC(=O)C1=CC(CCCO)=CC(C2CC2)N(Cc2cccc(OC(F)(F)F)c2)C=C1C(=O)OCCS(C)(=O)=O (stereo not given)", "composite z-score": -0.022}
{"compound": "[N-]=[N+]=NCc1ccccc1[C@@H]1OC(c2ccc(OCCCO)cc2)=N[C@]1(Cc1ccccc1)C(=O)NCCN1CCOCC1", "composite z-score": 0.133}
{"compound": "C=C(/C(=C/C[C@H](OC(=O)c1ccncc1)c1cccc(OCCO)c1)c1cnc2ccccc2c1)C(C)C", "composite z-score": 0.67}
{"compound": "COc1cc2c(cc1O)C(c1cccs1)N(Cc1sc3ccccc3c1Cl)CC2 (stereo not given)", "composite z-score": 0.659}
{"compound": "CCOC(=O)C1=CCC(c2ccco2)N(S(=O)(=O)c2ccc(C)cc2)C1 (stereo not given)", "composite z-score": 0.297}
{"compound": "CC(C)C(=C=CC[C@@H](O)c1cccc(OCCO)c1)C[C@@H](O)COCc1ccccc1", "composite z-score": 0.136}
